- Read-out: Cytochrome P450 (CYP1A1), CYP1A1 (gene 1543)
- assay-text: LTEA_HepaRG_CYP1A1: Life Technologies and Expression Analysis (LTEA) Assay for Cytochrome P450 (CYP1A1) using HepaRG (AID 2283454)
- test-conditions: mRNA level, 48 h; actives raise or lower the signal
The source made the active and inactive calls. Rule for the calls: active = hit-call score of the fitted dose curve at least 0.9, where 1 is the maximum; inactive = score below 0.9.
Parameter call: string, one of active, inactive

C[C@]12CC[C@@H]3c4ccc(O)cc4CC[C@H]3[C@@H]1CC[C@@H]2O ... active
C#C[C@]1(O)CC[C@H]2[C@@H]3CCc4cc(O)ccc4[C@H]3CC[C@@]21C ... inactive
COC(=O)c1ccc(C(=O)OC)cc1 ... active

Hey, what did the test say about O=C(c1ccc(OCCN2CCCCC2)cc1)c1c(-c2ccc(O)cc2)sc2cc(O)ccc12 ? inactive

----------
- assay-text: CCTE_Shafer_MEA_dev_LDH: CCTE's Lactate Dehydrogenase Assay for Cytotoxicity in the Neural Network Formation Assay, Shafer Lab (AID 2284068);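 note: exposure for twelve days from plating with re-dosing on DIV 5 and 9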
Inconclusive results are not listed. Calls of active or inactive are those of the source. How the source made its calls: active means hit-call score of the fitted dose curve at least 0.9, where 1 is the maximum; inconclusive means response in the unintended direction; inactive means score below 0.9.
Thanks in advance; please answer with one of these: active, inactive

CC(C)Cc1ccc(C(C)C(=O)O)cc1 (stereo not given) ... active
c1ccc2scnc2c1 ... inactive
C[C@]12CC[C@@H]3c4ccc(O)cc4CC[C@H]3[C@@H]1CC[C@@H]2O ... inactive

Hi team, can someone confirm the assay call for N#CCCNCCC#N ? inactive

Answer briefly: the call reported for CC/C(=C(\c1ccccc1)c1ccc(OCCN(C)C)cc1)c1ccccc1 in this assay. active

----------
- Read-out: Vascular endothelial growth factor receptor 2 (Homo sapiens) (UniProt P35968)
- assay-text: BSK_4H_VEGFRII: BioMAP Diversity Plus: 4H Assay for Vascular endothelial growth factor receptor 2 (VEGFR2) Biomarker Activity (AID 2283031)
- test-conditions: primary human endothelial cells (HUVEC); actives raise or lower the signal
Active and inactive are the calls of the source. Rule for the calls: active = hit-call score of the fitted dose curve at least 0.9, where 1 is the maximum; inactive = score below 0.9.
Just give me one of these, please: active, inactive

Here are 10 compounds together with their reported answers.
CC1(C)[C@H](C=C(Cl)Cl)[C@H]1C(=O)OCc1cccc(Oc2ccccc2)c1 ... inactive
CCCO[Si](OCCC)(OCCC)OCCC ... inactive
CCn1cc(C(=O)O)c(=O)c2ccc(C)nc21 ... inactive
c1ccc2c(c1)-c1ccc3ccc4cccc5cc-2c1c3c45 ... inactive
CC(=O)OCC=C(C)CCC=C(C)CCC=C(C)C ... inactive
C=CC(=O)OCC(CO)(COC(=O)C=C)COC(=O)C=C ... active
CC(C)Cc1ccc(C(C)C(=O)O)cc1 (configuration not stated) ... inactive
O=C(c1ccc(OCCN2CCCCC2)cc1)c1c(-c2ccc(O)cc2)sc2cc(O)ccc12 ... inactive
CCOC(=O)C=Cc1ccccc1 ... inactive
Nc1ccc(N)c([N+](=O)[O-])c1 ... inactive

Could you kindly confirm the outcome this assay logged for O=C(O)C(F)(F)C(F)(F)C(F)(F)C(F)(F)C(F)(F)C(F)(F)C(F)(F)C(F)F ? inactive

Which outcome did this test record for the compound CCCCCCCCCC(=O)OCC ? inactive

----------
- tested-target: human Vitamin D Receptor (VDR), VDR (gene 7421)
- assay-text: ATG_VDR_TRANS: Attagene TRANS-FACTORIAL HepG2 Assay for human Vitamin D Receptor (VDR) (AID 2283022)
Records with an inconclusive call do not appear. Activity calls are given as the source filed them. Rule for the calls: active = hit-call score of the fitted dose curve at least 0.9, where 1 is the maximum; inconclusive = response in the unintended direction; inactive = score below 0.9.
endpoint: outcome

// known answers, use as guide
CCn1cc(C(=O)O)c(=O)c2ccc(C)nc21 ... inactive
CC(=O)c1ccc(O)cc1 ... inactive
CCC(C)(CCCC(C)C)OC(C)=O (stereo not given) ... inactive
CC1=CC[C@@H]2C[C@H]1C2(C)C ... inactive
S=c1[nH][nH]c(=S)s1 ... inactive

With human Vitamin D Receptor (VDR), VDR (gene 7421) as the test system, CCCC1CCC(=O)CC1 showed outcome of inactive

Entry NC(=O)c1cccnc1 : outcome on human Vitamin D Receptor (VDR), VDR (gene 7421) = inactive

Kindly note: human Vitamin D Receptor (VDR), VDR (gene 7421), C=CCOC(=O)/C=C\C(=O)OCC=C , outcome value reported: inactive

With human Vitamin D Receptor (VDR), VDR (gene 7421) as the test system, CCCCCCCCOC(C)=O showed outcome of inactive

The molecule c1coc(CNc2ncnc3nc[nH]c23)c1 , when measured on human Vitamin D Receptor (VDR), VDR (gene 7421), yielded outcome of inactive

The reported outcome value, human Vitamin D Receptor (VDR), VDR (gene 7421), for CCC(=O)OC/C=C(\C)CCC=C(C)C reads inactive

Entry COC(=O)C(C)Oc1ccc(Oc2ncc(C(F)(F)F)cc2Cl)cc1 (stereo not given) : outcome on human Vitamin D Receptor (VDR), VDR (gene 7421) = inactive

Hey, human Vitamin D Receptor (VDR), VDR (gene 7421) data for CCOC(=O)C=Cc1ccccc1 : outcome came out at inactive

human Vitamin D Receptor (VDR), VDR (gene 7421) outcome of C=C/C(C)=C/C/C=C(\C)CCC=C(C)C is inactive

The observed outcome for O=Cc1ccccc1O when tested with human Vitamin D Receptor (VDR), VDR (gene 7421) stands at inactive

Item: OCCCO | System: human Vitamin D Receptor (VDR), VDR (gene 7421) | outcome: inactive

Result for CC(CCO)CC(C)(C)C (stereo not given) , tested on human Vitamin D Receptor (VDR), VDR (gene 7421), outcome: inactive

Item CC(C)CCOC(=O)CC(C)C was tested on human Vitamin D Receptor (VDR), VDR (gene 7421); the reported outcome is inactive

Readout outcome for CC(=O)OC/C=C(C)/C=C/C=C(C)/C=C/C1=C(C)CCCC1(C)C , test system human Vitamin D Receptor (VDR), VDR (gene 7421), was inactive

Record for CC(C)(C)c1cccc(O)c1 under target or system human Vitamin D Receptor (VDR), VDR (gene 7421): outcome reported as inactive

----------
- assay-text: CCTE_Harrill_HTTr_Viability_MCF7: CCTE's 6-hour Cell Viability Assessment for the High-Throughput Transcriptomics (HTTr) Platform, in MCF-7 cells cultured in DMEM + 10% fetal bovine serum, Harrill Lab (AID 2284010)
Active and inactive are the calls of the source. The calls were made as follows: active = hit-call score of the fitted dose curve at least 0.9, where 1 is the maximum; inactive = score below 0.9.
endpoint: outcome

c1ccc2scnc2c1 ... inactive
CC(=O)OC/C=C(C)/C=C/C=C(C)/C=C/C1=C(C)CCCC1(C)C ... inactive
C1COCO1 ... inactive
CC(=O)N(C)C ... inactive
Cc1cccc(C)c1 ... inactive
c1ccc(Cc2ccccc2)cc1 ... inactive
COC(=O)c1ccc(C(=O)OC)cc1 ... inactive
CN(C)C ... inactive

response.value for CNC(=C[N+](=O)[O-])NCCSCc1ccc(CN(C)C)o1 (field: outcome) = inactive

The reported outcome of the compound O=C(O)c1cc(C(=O)O)c(C(=O)O)cc1C(=O)O was inactive

The compound identified as CCCCCC(=O)O[C@]1(C(C)=O)CC[C@H]2[C@@H]3CCC4=CC(=O)CC[C@]4(C)[C@H]3CC[C@@]21C registered its outcome at inactive

Reported outcome ( C[C@H](CCC(=O)O)[C@H]1CC[C@H]2[C@@H]3CC[C@@H]4C[C@H](O)CC[C@]4(C)[C@H]3CC[C@]12C ) = inactive

Entry under test: C=C(C)C(N)=O . Its outcome was inactive

Please fill in: outcome reported for CCCCCC1CCC(=O)O1 (stereo not given) = inactive

Input O=C(c1ccc(OCCN2CCCCC2)cc1)c1c(-c2ccc(O)cc2)sc2cc(O)ccc12 . Output outcome: inactive

The compound identified as CCCCOC(=O)C(C)OC(=O)CCC (stereo not given) registered its outcome at inactive

Recorded result, Cc1cc(O)c2c(c1)C(=O)c1cc(O)cc(O)c1C2=O , outcome: inactive

The compound listed as CCCCCCCCCO has a reported outcome of inactive

C#C[C@]1(O)CC[C@H]2[C@@H]3CCc4cc(O)ccc4[C@H]3CC[C@@]21C yielded outcome of inactive

Documented outcome of CCOC(=O)C=Cc1ccccc1 : inactive

So for CC1=CCC(C(C)(C)O)CC1 (stereo not given) , the logged outcome turned out to be inactive

Reported outcome of OCC=Cc1ccccc1 : inactive

get_value(item= CCOc1ccc(NC(C)=O)cc1 , readout=outcome) returns inactive

# outcome of COc1ccc(C(C)=O)cc1 = inactive

Value of measured outcome for the entry CCCCCCCCCCCCCC(=O)OCC : inactive

Reported outcome for CCOC(=O)COC(=O)c1ccccc1C(=O)OCC was inactive

Item: CCCCOCCOCCO | outcome: inactive

Brc1cc(Br)cc(Br)c1 yielded outcome of inactive

----------
- Read-out: CYP2E1 (gene 1571)
- assay-text: LTEA_HepaRG_CYP2E1: Life Technologies and Expression Analysis (LTEA) Assay for CYP2E1 using HepaRG (AID 2283485)
- test-conditions: mRNA level, 48 h; actives raise or lower the signal
Active and inactive are the calls of the source. Rule for the calls: active = hit-call score of the fitted dose curve at least 0.9, where 1 is the maximum; inactive = score below 0.9.
Give one outcome, nothing more. List: 1 for active, -1 for inactive

Below, 3 compounds whose answers are already recorded.
COC(=O)c1ccc(C(=O)OC)cc1 ... -1
CCCCOCCOCCO ... -1
C#C[C@]1(O)CC[C@H]2[C@@H]3CCc4cc(O)ccc4[C@H]3CC[C@@]21C ... -1

Field: next compound
Which outcome did this test record for the compound O=C(c1ccc(OCCN2CCCCC2)cc1)c1c(-c2ccc(O)cc2)sc2cc(O)ccc12 ? 1
